Each entry below lists one item and its recorded TGI value.
test system: SN12C renal; test: NCI tumour cell line growth inhibition, 48 h

Worked cases, answers included:
>  <compound>
O=C1CSC(c2ccccc2O)N1c1ccc(-n2c(-c3ccccc3)nc3ccccc3c2=O)cc1 (stereo not drawn)

>  <attribute.measured>
TGI

>  <observed.value>
> 100 µM

$$$$
>  <compound>
O=C1Cc2cn[nH]c2-c2ccccc2N1

>  <attribute.measured>
TGI

>  <observed.value>
> 63.9 µM

$$$$
>  <compound>
CCOP(=O)(O)C(Nc1ccc(N=Nc2ccccc2)cc1)c1cccc(C(Nc2ccc(N=Nc3ccccc3)cc2)P(=O)(O)OCC)c1 (stereo not drawn)

>  <attribute.measured>
TGI

>  <observed.value>
> 100 µM

$$$$
>  <compound>
CC1(C)N=C(N)N=C(N)N1c1cccc(CCc2ccccc2)c1

>  <attribute.measured>
TGI

>  <observed.value>
> 100 µM

$$$$
>  <compound>
Cc1ccc(-c2cc(-c3ccc(Cl)cc3)nc(/N=C3\C(=O)N(CN(C)C)c4ccccc43)n2)cc1

>  <attribute.measured>
TGI

>  <observed.value>
> 100 µM

$$$$
>  <compound>
C[C@@H]1CC[C@@H]2[C@@H](C1)O[C@@H]([C@@H](C)OCc1ccccc1)SC2(C)C

>  <attribute.measured>
TGI

>  <observed.value>
32.3 µM

$$$$
>  <compound>
OCC(O)C(O)C(O)c1nn(-c2ccc(F)cc2)c2nc3cc(Cl)c(Cl)cc3nc12 (stereo not drawn)

>  <attribute.measured>
TGI

>  <observed.value>
62.4 µM

$$$$
>  <compound>
O=C(/C=C/c1ccccc1O)c1ccccc1Cl

>  <attribute.measured>
TGI

>  <observed.value>
> 100 µM

$$$$
>  <compound>
O=c1[nH]cnc2n[nH]nc12

>  <attribute.measured>
TGI

>  <observed.value>
> 100 µM

$$$$
>  <compound>
O=C(O)CSc1n[nH]c(-c2ccco2)n1

>  <attribute.measured>
TGI

>  <observed.value>
> 100 µM

$$$$

For the compound CC(O)[C@H](NC(=O)N[C@@H](CC(N)=O)c1nc(N2CCNCC2)no1)C(=O)O (stereo partly drawn) , what TGI is on record? > 100 µM

Could you do the same for "COc1ccc2c(c1)C(=O)c1c-2c(OCCN(C)C)nc2cc(OC)c(OC)cc12" , please? > 100 µM

* * *

tested on: HL-60(TB) leukemia; experiment: NCI tumour cell line growth inhibition, 48 h
The following compounds are listed with their measured TGI values.
Answer format: numeric, µM implied, no suffix.

>  <cpd.smiles>
C=CC(=O)Nc1cc2c(Nc3ccc(F)c(Cl)c3)ncnc2cc1C#CC(C)(C)N1CCN(C)CC1

>  <attribute.measured>
TGI

>  <unit.of.measurement>
µM

>  <observed.value>
5.08

$$$$

Return reported TGI; argument: "O=C(Nc1ccccc1)OCCN=C1c2ccccc2CCc2ccccc21" 42.2

Same thing, different compound: "CC1(C)OC[C@@H]([C@@]2(COC(c3ccccc3)(c3ccccc3)c3ccccc3)CC=CC(=O)O2)O1" 81.2

* * *

tested on: SF-295 CNS; assay: NCI tumour cell line growth inhibition, 48 h
Threshold rule: TGI greater than or equal to 90 µM is Met; below that, Not met.

TGI >= 90 µM for COc1ccc(C2Cc3cc(OC)c(OC)c(OC)c3C2)cc1 (configuration not stated) ? Met

Next up: "Nn1c(-c2ccc(Cl)cc2)nc2c(-c3ccc(Cl)cc3)nc3ccc(Cl)cc3c2c1=O" Not met

Param item: "CNC(=O)OCc1nc(SC)n(C)c1COC(=O)NC" Met

Please answer likewise for "CC1(C)N=C(N)N=C(N)N1c1cccc(CCc2ccccc2)c1" Met

Again, but for "COc1ccc(/C=C\c2cc(OC)c(OC)c(OC)c2)cc1" Not met

How about this compound: "O=C(/C=C/c1ccccc1O)c1ccccc1Cl" Met

Lookup "CC(=O)Oc1cc2cnc3c4cc(OC(C)=O)c(OC(C)=O)cc4ccc3c2cc1OC(C)=O" Met

* * *

test system: HOP-92 NSCLC; experiment: NCI tumour cell line growth inhibition, 48 h
attribute.measured: TGI

>  <molecule>
COc1cc2cc(C(=O)N3CC(CCl)c4ccc([N+](C)(C)Cc5ccccc5[N+](=O)[O-])cc43)[nH]c2c(OC)c1OC (stereo not drawn)

>  <TGI>
> 29.8 µM

$$$$

For the molecule "Cc1cc(NS(=O)(=O)c2ccc(N=[N+]([O-])c3ccc(S(=O)(=O)Nc4cc(C)on4)cc3)cc2)no1" , what TGI is on record? > 100 µM

Lookup COc1ccc(-c2nc(-c3cnccn3)n(C3OC(CO)C(O)C3O)n2)cc1 (stereo not drawn) > 10 µM

* * *

tested on: CCRF-CEM leukemia; assay: NCI tumour cell line growth inhibition, 48 h
Reported TGI values are given for each entry in this list.
Numeric only. Scale: µM

>  <cpd.smiles>
CC[C@H]1OC(=O)[C@H](C)[C@@H](O[C@H]2C[C@@](C)(OC)[C@@H](O)[C@H](C)O2)[C@H](C)[C@@H](O[C@@H]2O[C@H](C)C[C@H](N(C)C)[C@H]2O)[C@](C)(OC)C/C(C)=C2/O[C@@]1(C)C=C2C

>  <assay.target>
CCRF-CEM leukemia

>  <observed.value>
5.62

$$$$

Please look up its TGI: "Cc1ccc(OC(=O)N2C/C(=C\c3ccccc3)C(=O)/C(=C/c3ccccc3)C2)cc1" 16.3

* * *

test system: NCI-H460 lung; assay: NCI tumour cell line growth inhibition, 48 h
Quick rule: TGI of at least 30 µM means Yes, below that means No.

>  <compound>
O=CNc1ccccc1OCCOc1ccccc1NC=O

>  <label>
Yes

$$$$

Could you please find out whether CN(C)CCN1CCc2c([nH]c3ccccc23)C1c1cccnc1 (stereo unspecified) has TGI that meets 30 µM or exceeds it? Yes

Can you check "C=C1C[C@@H]2O[C@H]3[C@H]4[C@@H](CC[C@@](C)(OC(=O)CCC)[C@H]42)[C@@H](C)C(=O)O[C@@]3(C)CC[C@H]1OO" next? Yes

And then "Cc1cc(C)nc(NS(=O)(=O)c2ccc(Nc3c4ccccc4nc4c(C(=O)NCCN(C)C)cccc34)cc2)n1" , what is it? No

* * *

TGI for assorted compounds
tested on: SF-539 CNS; experiment: NCI tumour cell line growth inhibition, 48 h

Which TGI value belongs to "C1CCCN(NC2=NCCO2)CC1" ? > 100 µM

Same question for CC1OC(OC2C(O)C(O)C(O)C(O)C2O)C(N)CC1N=C(N)C(=O)O (configuration not stated) please. > 100 µM

* * *

Here the recorded TGI is given for each entry.
tested on: MDA-MB-231 breast; assay: NCI tumour cell line growth inhibition, 48 h

Sample answers from the record:
>  <compound>
COc1ccc(N2C(=O)C(=O)C3(CCCCC3)C2=O)c2ccccc12

>  <attribute.measured>
TGI

>  <observed.value>
> 10 µM

$$$$
>  <compound>
OCCN(CO)CO

>  <attribute.measured>
TGI

>  <observed.value>
> 100 µM

$$$$
>  <compound>
COc1cc(NC2CCCCC2O)c2nc(-c3ccc(Cl)cc3)ccc2c1 (configuration not stated)

>  <attribute.measured>
TGI

>  <observed.value>
57.8 µM

$$$$
>  <compound>
O=C1NC2(CCNCC2)Oc2ccccc21

>  <attribute.measured>
TGI

>  <observed.value>
> 100 µM

$$$$
>  <compound>
CC(C)(O)c1cc2c(cc1C(C)(C)O)-c1ccccc1-2

>  <attribute.measured>
TGI

>  <observed.value>
> 100 µM

$$$$

Look up TGI for this compound: "COc1cc(-c2nn(-c3cccc(NC(=O)CCN4CCN(c5ccccc5)CC4)c3)cc2-c2ccncc2)ccc1Cl" 7.91 µM

Next compound: CC1=CCC(C(C)(C)NC(=O)c2ccccc2)C/C1=N/O (configuration not stated) > 100 µM

* * *

As shown below, each of these compounds has a reported TGI value.
test system: KM12 colon; test: NCI tumour cell line growth inhibition, 48 h
Form entry: value (µM) — number only.

Example cases with answers are listed next.
>  <compound>
COc1ccc(-c2c(N)noc2-c2cc(OC)c3c(c2)OCCO3)cc1

>  <TGI [µM]>
3.8

$$$$
>  <compound>
O=[N+]([O-])c1cccc2nccc(NCCN3CCOCC3)c12

>  <TGI [µM]>
40

$$$$
>  <compound>
Cc1ccc(OC(=O)N2C/C(=C\c3ccccc3)C(=O)/C(=C/c3ccccc3)C2)cc1

>  <TGI [µM]>
45.7

$$$$

API: the following record is the query input.
Can you share its TGI? I mean this compound: C[As](C)SC1OCC(O)C(O)C1O (stereo not drawn) 3.83

* * *

Quick reference for TGI among some compounds
system: NCI-H460 lung; assay: NCI tumour cell line growth inhibition, 48 h

>  <cpd.smiles>
Cc1ccc(C(=O)Oc2ccccc2)cc1N=NN(C)C

>  <attribute.measured>
TGI

>  <observed.value>
> 100 µM

$$$$
>  <cpd.smiles>
COc1cc(N(C)C)c(OC)cc1C=C1C=CC=C1

>  <attribute.measured>
TGI

>  <observed.value>
> 100 µM

$$$$

Return reported TGI; argument: "CCCc1nc2c(n1CC)C(=O)c1ccccc1C2=O" > 100 µM
